Data provenance: ChEMBL document CHEMBL4483862

- Test system: Plasmodium berghei
- method_description: Luciferase/luciferin-expressing antifolate-resistant parasites were used to infect a culture of HepG2 cells that were pre-incubated with compounds. Infected hepatocytes emit light due to the luciferase reaction. Assay results are presented as the percent inhibition of light emission compared to control. […]
- Format: functional
- settings: sporozoite, PBLUC_HILL_SLOPE 14.9, PBLUC_R_SQUARED 0.744, read-out: LUCIFERASE INFECTION ASSAY - IC50
measurement_kind: pIC50
Give only the number. pIC50 is defined as minus log10 of concentration in molar units.

Hello, I am looking for reported pIC50 with Plasmodium berghei for `O=C(NNc1ccc(F)cc1)c1cccc(S(=O)(=O)N2CCc3ccccc3C2)c1` . Could you help?
5.04

----------
- Test system: Plasmodium berghei
- method_description: Luciferase/luciferin-expressing antifolate-resistant parasites were used to infect a culture of HepG2 cells that were pre-incubated with compounds. Infected hepatocytes emit light due to the luciferase reaction. Assay results are presented as the percent inhibition of light emission compared to control. […]
- Format: functional
- settings: sporozoite, HEPG2TOX_HILL_SLOPE 3.88, HEPG2TOX_R_SQUARED 0.992, PBLUC_HILL_SLOPE 14.7, PBLUC_R_SQUARED 0.858, read-out: LUCIFERASE INFECTION ASSAY - IC50
measurement_kind: IC50

Quick check: IC50 of `Cc1cccc(NC2=C(Cl)C(=O)c3ccccc3C2=O)c1` ?
1200 nM

----------
- System: Plasmodium berghei
- method_description: Luciferase/luciferin-expressing antifolate-resistant parasites were used to infect a culture of HepG2 cells that were pre-incubated with compounds. Infected hepatocytes emit light due to the luciferase reaction. Assay results are presented as the percent inhibition of light emission compared to control. […]
- Format: functional
- settings: sporozoite, PBLUC_HILL_SLOPE 5.07, PBLUC_R_SQUARED 0.772, read-out: LUCIFERASE INFECTION ASSAY - IC50
measurement_kind: IC50
Please give the number followed by its unit.

# get_value(readout='IC50', item= CC(OC(=O)c1cc(-c2ccccc2)nc2c1cnn2Cc1ccccc1)C(=O)NC(C)(C)C (stereo unspecified) )
4.36 µM

----------
- System: Plasmodium berghei
- method_description: Luciferase/luciferin-expressing antifolate-resistant parasites were used to infect a culture of HepG2 cells that were pre-incubated with compounds. Infected hepatocytes emit light due to the luciferase reaction. Assay results are presented as the percent inhibition of light emission compared to control. […]
- Type: functional
- settings: sporozoite, HEPG2TOX_HILL_SLOPE 1.29, HEPG2TOX_R_SQUARED 0.665, PBLUC_HILL_SLOPE 22.8, PBLUC_R_SQUARED 0.0313, read-out: LUCIFERASE INFECTION ASSAY - IC50
pIC50: −log10 of the molar value.
measurement_kind: pIC50

Find the recorded pIC50 belonging to `Nc1nc2ccc(C(=O)N3CCN(C/C=C/c4ccccc4)CC3)cc2s1` and report it.
< 5.00

----------
- Tested on: Plasmodium berghei
- method_description: Luciferase/luciferin-expressing antifolate-resistant parasites were used to infect a culture of HepG2 cells that were pre-incubated with compounds. Infected hepatocytes emit light due to the luciferase reaction. Assay results are presented as the percent inhibition of light emission compared to control. […]
- Assay type: functional
- settings: sporozoite, PBLUC_HILL_SLOPE 12.5, PBLUC_R_SQUARED 0.668, read-out: LUCIFERASE INFECTION ASSAY - IC50
measurement_kind: pIC50
Would you please state pIC50, meaning minus log10 of the concentration in mol/L, as a bare number?

What measured pIC50 is associated with `O=c1nc(CCc2ccc3c(c2)OCCO3)[nH]c2ccccc12` on Plasmodium berghei?
5.51
